# test details: yeast display, Sf9 membrane polyspecificity reagent, FACS + sequencing; frameworks hold sequencing errors
measurement kind: polyreactivity (PSR sort gate)

QVQLVESGGGLVQAGGSLRLSCAASGSIFDWYAMGWYRQAPGKEGELVAAISSGDSTYYADSVKGRFTISRDNAKNTVYLQMNSLKPEDTAVYYGAAVTKLSGIRYNYWGQGTQVTVSS :: low polyreactivity
QVQLVESGGGLVQAGGSLRLSCAASGYIFSGYAMGWYRQAPGKERELVAAISSNGGSTYYADSVKGRFTISRDNAKNTVYLQMNSLKPEDTAVYYCNRGLAARVGRGDYWGQGTQVTVSS :: low polyreactivity
QVQLVESGGGLVQAGGSLRLSCAASGRILGSYAMGWYRQAPGKERELVAAISRGGGRTYYADSVKGRFTISRDNAKNTVYLQMNSLNPEDTAVYYCNAPVTGSSSYFSQHFDYWGQGTQVTVSS :: high polyreactivity
QVQLVESGGGLVQAGGSLRLSCAASGRIFRYYVMGWYRQAPGKERELVAAISRSGGTTYYADSVKGRFTISRDNAKNTVYLQMNSLKPEDTAVYYCAAVYGRDPGDYWGQGTQVTVSS :: high polyreactivity

Entry under review: QVQLVESGGGLVQAGGSLRLSCAASGFTFNFYTMGWYRQAPGKERELVAAITWSGGSTYYADSVKGRFTISRDNAKNTVYLQLNSLKPEDTAVYYCAATQQSRDRRFNYWGQGTQVTVSS . Reported polyreactivity (PSR sort gate)? high polyreactivity

Query: polyreactivity (PSR sort gate); subject: QVQLVESGGGLVQAGGSLRLSCAASGSIFGGYTKGWYRQAPWKERELVAAISRRGGNTYYADSVKGRFTISRDNAQITVYLQMNSLKPEDTAVYYCAVLWPSARIPVKLDYWGQGTQVTVSS high polyreactivity

I have this sequence here, QVQLVESGGCLVQAGGSLRLSCAASGYTFYVYAMGWYRQAAGKVRELVSAISGGSNTYYADSVKGRFTISRDNAKNTVYLQMNSLKPEDTALYYCAKSSTTYRQRARYDYWGHGTQVTVSS , and I need its recorded polyreactivity (PSR sort gate). high polyreactivity

Given the sequence QVQLVESGGGIVQAGGSLRLSCAASGGTFNRYAMGWYRQAPGKERELVAAISNGGGRTYYADSVKGRFTISRDNAKNTVYLQMNSLKPEDNSVYYCAKDLTRTSYRSAFDYWGQGTQVTVSS , what is its reported polyreactivity (PSR sort gate)? high polyreactivity

Name the recorded polyreactivity (PSR sort gate) for QVQLVESGGGLVQAGGSLRLSCAASGGPFKRNAMGWSRQAPGKERELVAAISTSGATTYYADSVKGRFTISRDTAKNTVYLQMNSLKPEDTAVYYCAARIRGYVYKGMNYWGQGTQVTVSS . high polyreactivity

Which polyreactivity (PSR sort gate) reading was recorded for the sequence QVQLVESGGGLVQAGGSLRLSCAASGRISESNDMGWYRQAPGKEREVVAAISSSGGSTYYADSVKGRFTISRDNAKNTVYLQMNSLKPEETAVDYCNAVYYRTVLKIGVYEYDYWGQGTQVTVST ? low polyreactivity

Which polyreactivity (PSR sort gate) is listed for QVQLVESGVGLVQAGGSLRLSCAASGSTFLTNVMGWYRQAPGKERELVAAITIGGSTNYADSVKGRFTISRDNAKNSVYLQMNSLKPEDTAVYYCATDIRRKPRYVDYEYWGQGTQVSVSS ? low polyreactivity

So what's the measured polyreactivity (PSR sort gate) for this one? QVQLVESGGRLDQAGGSLRLSCAASGRIFSRNTMGWYRQAPGKERELVATITSAGSTSFADSVKGRFTISRDNAKNTVYLQMNSLKPENTAVYYCAKRGAYATGRRYDPYGYWGQGTQVTVSS high polyreactivity
